METHOD_NOTES: growth inhibition, single agent or in combination, cell-based, chromothripsis tumors, cisplatin or BGB combos (AID 1671449);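 further: cells exposed for 96 hours; 0% = vehicle DMSO and 100% = killing by high DMSO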
CONDITION_INFO: LFS_MB_P medulloblastoma cells, measured here: combination with cisplatin, at 0.5 µM, stronger effect = higher value
Assignment: determine reported inhibition for the given compounds.
Numbers only, in %.

Value of measured inhibition for the entry CC1OC(n2cc(F)c(=O)[nH]c2=O)C(O)C1O (stereo not given) : -29.8

Each compound below has a reported value. Please supply its inhibition.
1. C[n+]1ccc(-c2c3nc(c(-c4cc[n+](C)cc4)c4ccc([nH]4)c(-c4cc[n+](C)cc4)c4nc(c(-c5cc[n+](C)cc5)c5ccc2[nH]5)C=C4)C=C3)cc1
2. CCC(C)C(=O)OC1CC(C)C=C2C=CC(C)C(CCC3CC(O)CC(=O)O3)C21 (stereo not given)
3. Cn1cc(-c2cnn3c(N)c(Br)c([C@H]4CCCNC4)nc23)cn1
4. Cc1cc(C=CC#N)cc(C)c1Nc1ccnc(Nc2ccc(C#N)cc2)n1

Solution:
1: -7.43; 2: -46.1; 3: 10.2; 4: -44.6

Each compound below has a reported value. Please supply its inhibition.
1. O=c1[nH]c(=S)[nH]c2nc(-c3ccccc3)c(-c3ccccc3)nc12
2. O=C(O)c1cc2cccc([N+](=O)[O-])c2[nH]1
3. Cc1cn(C2C=CC(CO)O2)c(=O)[nH]c1=O (stereo not given)
4. O=c1[nH]c(=O)n(C2CC(O)C(CO)O2)cc1I (stereo not given)
5. Cc1ccc(NC(=O)CCCCCC(=O)Nc2ccccc2N)cc1

Solution:
1. -17.6
2. -30
3. -28.2
4. -5.31
5. -6.67

----------
METHOD_NOTES: drug combination growth inhibition, ovarian cancer – cell-based, oncology-focused library, rucaparib conditional, profiling panel (AID 1508598)
CONDITION_INFO: patient-derived ovarian cancer cells, CellTiter-Glo viability, 144 h; at 0.313 µM; OCI-P5x cells; without rucaparib; stronger effect = lower value
Assignment: determine reported viability for the given compounds.
Give bare numbers, in %.

Example cases with answers are listed next.
Value of measured viability for the entry "Cc1[nH]c(C=C2C(=O)Nc3ccc(S(=O)(=O)N(C)c4cccc(Cl)c4)cc32)c(C)c1C(=O)N1CCN(C)CC1" : 107

Value of measured viability for the entry "C=CCNC1=C2C[C@@H](C)C[C@H](OC)[C@H](O)[C@@H](C)/C=C(\C)[C@H](OC(N)=O)[C@@H](OC)/C=C\C=C(\C)C(=O)NC(=CC1=O)C2=O" : 8.71

Value of measured viability for the entry "CC(C)NCCCn1c(Sc2cc3c(cc2I)OCO3)nc2c(N)ncnc21" : 9.78

Value of measured viability for the entry "Cc1cc(NC(=O)c2cccc(NC(=O)/C=C/CN(C)C)c2)ccc1Nc1nccc(-c2cccnc2)n1" : 112

Value of measured viability for the entry "Nc1nc(F)nc2c1ncn2[C@H]1O[C@H](CO)[C@@H](O)[C@@H]1O" : 112

Each compound below has a reported value. Please supply its viability.
1. CC1(C)C=C(CN2C/C(=C/c3ccc(F)cc3)C(=O)/C(=C/c3ccc(F)cc3)C2)C(C)(C)N1O
2. COc1cc([C@H]2c3cc4c(cc3[C@@H](O[C@@H]3O[C@@H]5CO[C@@H](c6cccs6)O[C@H]5[C@H](O)[C@H]3O)[C@H]3COC(=O)[C@H]23)OCO4)cc(OC)c1O

Solution:
1: 103; 2: 35.6

----------
METHOD_NOTES: galactose survival enhancers in mitochondrial complex I cybrids – cell-based, galactose medium, ATP luminescence, primary screen (AID 1645843);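 further: positive z means more ATP and so rescue of galactose-driven cybrid death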
CONDITION_INFO: complex I mutant cybrid cells, 72 h, stronger effect = higher value
The source made the active and inactive calls.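 Rule for the calls: active = z-score of at least 1.8 in each of two replicates, scored against plate mean and spread of sample wells; inactive = the rest.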
MEASUREMENT_LABEL: z-score

Example cases with answers are listed next.
Value of measured z-score for the entry "COc1cc2c(CCNC(C)=O)c[nH]c2cc1O" : -0.44 (inactive)

Value of measured z-score for the entry "COc1ccc(C(=O)O)cc1" : -0.635 (inactive)

Value of measured z-score for the entry "Cc1cccc(CN2CCN(c3ncnc4sccc34)CC2=O)c1" : 2.43 (inactive)

Value of measured z-score for the entry "O=C(Nc1n[nH]c(-c2ccccc2)n1)N1CCN(c2ccc(F)cc2)CC1" : 0.11 (inactive)

Value of measured z-score for the entry CC1=C(C(=O)N2CC(=O)N(CC(C)C)CC(OCc3ccccc3)C2)OCCO1 (stereo unspecified) : 0.39 (inactive)

Now for the compound whose z-score we want.
Value of measured z-score for the entry "CC(C)c1n[nH]c2c1CN(C(=O)C1CCCCCC1)CC2" : -0.485 (inactive)

----------
METHOD_NOTES: growth inhibition, single agents and combos, HTB85, cell-based, BGB or cisplatin IC20 combos, synergistic combos for chromothripsis tumors (AID 1671453);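 further: cells exposed for 96 hours before readout; 0% = vehicle DMSO and 100% = high DMSO killing control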
CONDITION_INFO: HTB85 osteosarcoma cells, drug combinations, at 0.5 µM, stronger effect = higher value
Non-standard residues stand in square brackets, D forms with d. Residues, ends and D or L forms follow the SMILES beside them. Dolaproine = CO[C@@H]([C@@H]1CCCN1)[C@@H](C)C(=O)O; Dil = CC[C@H](C)[C@H](NC)[C@@H](CC(=O)O)OC; NMeV = CN[C@H](C(=O)O)C(C)C
Assignment: determine reported inhibition for the given compounds.
Answers are plain numbers, in %.

Value of measured inhibition for the entry "COc1ccc(-c2nc(-c3cc(C(F)(F)F)cc(C(F)(F)F)c3)n(Cc3ccc(C(N)=O)cc3)c2-c2ccc(OC)cc2)cc1" : -24.2

Each compound below has a reported value. Please supply its inhibition.
1. O=c1cc(-c2ccc(O)cc2)[nH]c(=S)[nH]1
2. C=C(NC(=O)C(=C)NC(=O)c1csc(C2=NC3c4csc(n4)C4NC(=O)c5csc(n5)C(C(C)(O)C(C)O)NC(=O)C5CSC(=N5)/C(=C/C)NC(=O)C(C(C)O)NC(=O)c5csc(n5)C3(CC2)NC(=O)C(C)NC(=O)C(=C)NC(=O)C(C)NC(=O)C(C(C)CC)NC2C=Cc3c(C(C)O)cc(nc3C2O)C(=O)OC4C)n1)C(N)=O (stereo not drawn)

Solution:
1: -22.5; 2: 11.5

Each compound below has a reported value. Please supply its inhibition.
1. O=c1[nH]cnc2c1ncn2C1CCC(CO)O1 (stereo not drawn)
2. CCC(C)C(=O)OC1CC(C)C=C2C=CC(C)C(CCC3CC(O)CC(=O)O3)C21 (stereo not drawn)
3. CC(C)c1ccc(-c2cc(=O)c3ccccc3o2)cc1
4. Cc1cc(C#N)cc(C)c1Oc1nc(Nc2ccc(C#N)cc2)nc(N)c1Br
5. O=C1N=c2ccccc2=C1c1c(O)[nH]c2ccccc12
6. CC1OC(CC(=O)O)CC2=C1C(=O)c1c(O)cccc1C2=O (stereo not drawn)

Solution:
1: 0.13; 2: -1.62; 3: -40.2; 4: -2.4; 5: -27.2; 6: 99.9

Each compound below has a reported value. Please supply its inhibition.
1. CC(C)(C#N)c1ccc(N2C(=O)OCc3cnc4ccc(-c5cnc6ccccc6c5)cc4c32)cc1
2. Cc1cc(C)cc(C(=O)NOCCCCCC(=O)NO)c1
3. Nc1ncn(C2OC(CO)C(O)C2O)c(=O)n1 (stereo not drawn)
4. CC1CN(c2c(F)c(N)c3c(=O)c(C(=O)O)cn(C4CC4)c3c2F)CC(C)N1 (stereo not drawn)
5. Cn1cc(-c2cnn3c(N)c(Br)c([C@H]4CCCNC4)nc23)cn1
6. CC[C@H](C)[C@@H]([C@@H](CC(=O)N1CCC[C@H]1[C@H](OC)[C@@H](C)C(=O)N[C@@H](Cc1ccccc1)C(=O)O)OC)N(C)C(=O)[C@@H](NC(=O)[C@@H](NC)C(C)C)C(C)C (H-[NMeV]V[Dil][Dolaproine]F-OH)
7. C[C@@H]1COCCN1c1cc(C2(S(C)(=O)=O)CC2)nc(-c2cccc3[nH]ccc23)n1

Solution:
1. 3.37
2. 15.3
3. -6.96
4. -1.44
5. -14.3
6. 55.8
7. 20.9

Each compound below has a reported value. Please supply its inhibition.
1. Nc1ccccc1NC(=O)c1cnccn1
2. O=C(CCCCCCC(=O)Nc1ccc(I)cc1)NO

Solution:
-12.2
-14.1

----------
METHOD_NOTES: viability loss with induced miR-34 in A549 – imaging, A549 dox-inducible miR-34, nuclei and caspase counts, primary screen (AID 1347080)
CONDITION_INFO: A549 miR-34 inducible, Hoechst nuclei count, 48 h; measured here: total cells with miR-34 induction; stronger effect = lower value
Param label: returns True when cell count < 8000, returns False otherwise, including exact equality.

Example entries begin here.
Exercise: Determine whether this compound shows cell count lower than 8000 (ties excluded): CCC(C)C(=O)OC1CCC=C2C=CC(C)C(CCC3CC(O)CC(=O)O3)[C@H]21 (stereo partly specified)
Solution: True

Exercise: Determine whether this compound shows cell count lower than 8000 (ties excluded): CCC1C(=O)N(C)c2cnc(Nc3ccc(C(=O)NC4CCN(C)CC4)cc3OC)nc2N1C1CCCC1 (stereo unspecified)
Solution: True

Exercise: Determine whether this compound shows cell count lower than 8000 (ties excluded): "Cc1cc(NC(=O)Cn2cc(-c3cccc4cccnc34)cn2)n(C)n1"
Solution: False

Exercise: Determine whether this compound shows cell count lower than 8000 (ties excluded): CCCCCCCCCCCCCCCCCC(=O)OC(CC(=O)O)C[N+](C)(C)C (stereo unspecified)
Solution: True

Exercise: Determine whether this compound shows cell count lower than 8000 (ties excluded): "C=CC[C@H](N)C(=O)O"
Solution: False

Exercise: Determine whether this compound shows cell count lower than 8000 (ties excluded): CC1COCCN1c1cc(C2(S(C)(=O)=O)CC2)nc(-c2cccc3[nH]ccc23)n1 (stereo unspecified)
Solution: True

Exercise: Determine whether this compound shows cell count lower than 8000 (ties excluded): NC1=NC2C(N=C(Br)N2C2O[C@H]3COP(=O)(O)O[C@@H]3[C@@H]2O)C(=O)N1 (stereo partly specified)
Solution: True

Exercise: Determine whether this compound shows cell count lower than 8000 (ties excluded): "N.N.O=C(O)CO.[Pt]"
Solution: False

Exercise: Determine whether this compound shows cell count lower than 8000 (ties excluded): "COc1ccc(-n2cccn2)c(-c2nnc3ccccn23)c1"
Solution: False

Exercise: Determine whether this compound shows cell count lower than 8000 (ties excluded): "COc1cc(F)c(-c2nc3c(cnn3Cc3cccs3)[nH]2)c(F)c1"
Solution: True

Now consider the entry below.
Exercise: Determine whether this compound shows cell count lower than 8000 (ties excluded): "COc1cccc2ccc(-c3nnc4ccccn34)nc12"
Solution: True
